Answer each item with its documented Inhibition.
Test system: Escherichia coli
run.parameters: Concentration 32 ug.mL-1;; ASSAY_TEST Inhibition of Bacterial Growth; detection method Absorption (OD600); MEDIA CAMHB; plate type 384well; NBS; CORNING #3640; time 18 hr
Description: Antibacterial activity against Escherichia coli ATCC 25922 (CO-ADD:GN_001); MIC in CAMBH media using NBS plates, by OD(600)
Entries with a potency or affinity are not part of this list.
Give just the number in %; leave the unit off.

(Q) Reported Inhibition for O=C(Cn1nc2c(SC3CCCCC3)nccn2c1=O)Nc1cccc(Cl)c1 : what is it?
(A) -17.9

(Q) Reported Inhibition for CCc1nnc2c(=O)n(CC(=O)Nc3cccc(C#N)c3)c3ccccc3n12 : what is it?
(A) 1.69

(Q) Reported Inhibition for Cc1ccc(C)c(-c2cc3c4nnc(SCC(=O)Nc5cccc(Br)c5)n4ccn3n2)c1 : what is it?
(A) -9.35

(Q) Reported Inhibition for Cc1ccccc1CSc1nnc2c(=O)n(-c3ccc(F)c(F)c3)ccn12 : what is it?
(A) -1.52

(Q) Reported Inhibition for CCc1nnc2c(S(=O)(=O)N(Cc3cccc(OC)c3)c3ccccc3)cccn12 : what is it?
(A) -2.65

(Q) Reported Inhibition for O=c1c2sccc2n2c(=O)n(Cc3cccc(Cl)c3)nc2n1CCc1ccccc1 : what is it?
(A) 1.01

(Q) Reported Inhibition for Cc1ccc(-c2ccc3nn(CC(=O)Nc4ccc(C#N)cc4)c(=O)n3n2)cc1C : what is it?
(A) 0.46

(Q) Reported Inhibition for Cc1ccccc1CN(c1ccc(C(C)C)cc1)S(=O)(=O)c1cccn2c(C)nnc12 : what is it?
(A) -1.18

(Q) Reported Inhibition for CCOC(=O)c1ccccc1NC(=O)Cn1nc2c3cc(-c4ccc(Cl)cc4)nn3ccn2c1=O : what is it?
(A) 2.34

(Q) Reported Inhibition for COc1ccccc1N1CCN(C(=O)Cn2nc3ccc(-c4ccc(C)c(C)c4)nn3c2=O)CC1 : what is it?
(A) -0.61

(Q) Reported Inhibition for COc1ccc(NC(=O)Cn2nc3c4cc(-c5ccc(C)cc5)nn4ccn3c2=O)cc1Cl : what is it?
(A) -3.03

(Q) Reported Inhibition for COc1cc(NC(=O)CSc2nnc3c(=O)n(-c4ccc(C)c(C)c4)ccn23)cc(OC)c1 : what is it?
(A) -13.82

(Q) Reported Inhibition for COc1ccc(NC(=O)Cn2nc3ccc(-c4ccccc4)nn3c2=O)cc1Cl : what is it?
(A) -7.68

(Q) Reported Inhibition for Cc1cccc(N(Cc2ccc(F)cc2)S(=O)(=O)c2cccn3c(C)nnc23)c1 : what is it?
(A) -0.37

(Q) Reported Inhibition for Cc1ccccc1CSc1nnc2c(=O)n(-c3ccc(F)cc3)ccn12 : what is it?
(A) -5.51

(Q) Reported Inhibition for COc1cccc(-n2ccn3c(SCC(=O)Nc4cc(F)ccc4F)nnc3c2=O)c1 : what is it?
(A) -6.25

(Q) Reported Inhibition for COc1ccccc1NC(=O)Cn1nc2c(SCc3ccc(Cl)cc3)nccn2c1=O : what is it?
(A) -8

(Q) Reported Inhibition for Cc1ccc(Oc2nccn3c(=O)n(CC(=O)Nc4cc(F)ccc4F)nc23)cc1 : what is it?
(A) -1.03

(Q) Reported Inhibition for CCOC(=O)c1ccc(NC(=O)Cn2nc3ccc(Sc4ccccc4)nn3c2=O)cc1 : what is it?
(A) -3.7

(Q) Reported Inhibition for O=S(=O)(c1ccc2nncn2c1)N(Cc1cccc(F)c1)c1cc(F)cc(F)c1 : what is it?
(A) -4.91

(Q) Reported Inhibition for CCc1nnc2ccc(S(=O)(=O)N(Cc3cccc(OC)c3)c3ccc(F)cc3)cn12 : what is it?
(A) -12.34

(Q) Reported Inhibition for Cc1ccc(-c2cc3c4nn(CC(=O)Nc5cc(F)ccc5C)c(=O)n4ccn3n2)cc1C : what is it?
(A) -4.51

(Q) Reported Inhibition for COc1ccc(NC(=O)CSc2nnc3c(=O)n(-c4ccccc4)ccn23)cc1OC : what is it?
(A) -7.32

(Q) Reported Inhibition for COC(=O)c1sccc1NC(=O)CSc1nc2ccccc2n2c(C)nnc12 : what is it?
(A) 5.14

(Q) Reported Inhibition for Cc1ccc(NC(=O)Cn2nc3c(N4CCOCC4)nccn3c2=O)cc1F : what is it?
(A) 2.81

(Q) Reported Inhibition for Cc1ccc(-n2ccn3c(=O)n(Cc4ccc(F)cc4)nc3c2=O)cc1C : what is it?
(A) -2.15

(Q) Reported Inhibition for Cc1cccc(N(Cc2ccccc2F)S(=O)(=O)c2ccc3nncn3c2)c1 : what is it?
(A) -5.15

(Q) Reported Inhibition for Cc1ccc(Cl)cc1NC(=O)Cn1nc2c3c4c(sc3ncn2c1=O)CCCCC4 : what is it?
(A) -1.7

(Q) Reported Inhibition for Cc1cccc(N(Cc2cccc(F)c2)S(=O)(=O)c2cccn3c(C)nnc23)c1 : what is it?
(A) -1.19

(Q) Reported Inhibition for Cc1cccc(NC(=O)Cn2nc3ccc(SC(C)(C)C)nn3c2=O)c1 : what is it?
(A) -1.06

----------
System: Escherichia coli
run.parameters: Concentration 32 ug.mL-1;; ASSAY_TEST Inhibition of Bacterial Growth; detection method Absorption (OD600); MEDIA CAMHB; plate type 384well; NBS; CORNING #3640; time 18 hr
Potency and affinity values are given separately.
Answer each item with its documented Inhibition.
Give just the number in %; leave the unit off.

(Q) Reported Inhibition for O=C(CSc1nnc2c(=O)n(-c3ccc(F)c(F)c3)ccn12)c1c[nH]c2ccccc12 : what is it?
(A) -5.88

(Q) Reported Inhibition for O=C(Cn1nc2c(N3CCOCC3)nccn2c1=O)NCc1ccc(Cl)cc1 : what is it?
(A) 3.48

(Q) Reported Inhibition for CCCN(C)c1nccn2c(=O)n(CC(=O)Nc3cccc(C(C)=O)c3)nc12 : what is it?
(A) -7.5

(Q) Reported Inhibition for O=S(=O)(c1ccc2nncn2c1)N(Cc1ccccc1F)c1cccc(F)c1 : what is it?
(A) -18.72

(Q) Reported Inhibition for O=c1c2sccc2n2c(=O)n(Cc3cccc(Br)c3)nc2n1Cc1cccs1 : what is it?
(A) -23.42

(Q) Reported Inhibition for Cc1ccc(NC(=O)Cn2nc3cc(C)nc(Nc4ccc(F)cc4)n3c2=O)cc1 : what is it?
(A) -2.28

(Q) Reported Inhibition for CCCn1c(=O)c2sccc2n2c(=O)n(CC(=O)c3cc(C)ccc3C)nc12 : what is it?
(A) 0.58

(Q) Reported Inhibition for O=S(=O)(c1ccc2nncn2c1)N(Cc1cc(F)cc(F)c1)c1ccc(F)c(F)c1 : what is it?
(A) -4.86

(Q) Reported Inhibition for CCOC(=O)c1ccc(NC(=O)Cn2nc3c(N4CCOCC4)nccn3c2=O)cc1 : what is it?
(A) -3.52

(Q) Reported Inhibition for CSc1cccc(NC(=O)Cn2nc3ccc(SC(C)(C)C)nn3c2=O)c1 : what is it?
(A) 1.52

(Q) Reported Inhibition for N#CCn1nc2n(Cc3ccccc3)c(=O)c3ccc(C(=O)NC4CCCCC4)cc3n2c1=O : what is it?
(A) -12.22

(Q) Reported Inhibition for CCc1nnc2c(S(=O)(=O)N(Cc3cccc(OC)c3)c3cccc(C)c3)cccn12 : what is it?
(A) -1.22

(Q) Reported Inhibition for O=C(CSc1nnc2c3cc(-c4ccccc4)nn3ccn12)NCc1ccc(Cl)cc1 : what is it?
(A) -1.12

(Q) Reported Inhibition for O=c1c2nnc(-c3cccc([N+](=O)[O-])c3)n2ccn1-c1ccc(F)cc1 : what is it?
(A) -1.02

(Q) Reported Inhibition for O=C(Cn1nc2c(Sc3cccc(F)c3)nccn2c1=O)Nc1ccc(F)c(Cl)c1 : what is it?
(A) -15.42

(Q) Reported Inhibition for Cc1ccc(C)c(NC(=O)Cn2nc3ccc(-c4ccc(C)c(C)c4)nn3c2=O)c1 : what is it?
(A) -17.07

(Q) Reported Inhibition for COc1ccc(NC(=O)Cn2nc3ccc(SC4CCCCC4)nn3c2=O)c(OC)c1 : what is it?
(A) -7.62

(Q) Reported Inhibition for O=C(CCc1nnc2c3cc(-c4ccc(F)cc4)nn3ccn12)N1CCC(Cc2ccccc2)CC1 : what is it?
(A) -0.02

(Q) Reported Inhibition for COc1ccc(N(Cc2ccc(OC)c(F)c2)S(=O)(=O)c2ccc3nncn3c2)cc1 : what is it?
(A) -0.06

(Q) Reported Inhibition for O=c1c2sccc2n2c(=O)n(Cc3ccccc3Cl)nc2n1Cc1cccs1 : what is it?
(A) -2.76

(Q) Reported Inhibition for CCOc1ccccc1NC(=O)Cn1nc2c3cc(-c4ccc(Cl)cc4)nn3ccn2c1=O : what is it?
(A) 1.3

(Q) Reported Inhibition for Cc1cccc(NC(=O)Cn2c(=O)c3nnc(C(C)C)n3c3ccccc32)c1 : what is it?
(A) -8.16

(Q) Reported Inhibition for COc1ccc(NC(=O)c2ccc3nn(CC(=O)Nc4ccc(C(C)C)cc4)c(=O)n3c2)cc1 : what is it?
(A) -3.43

(Q) Reported Inhibition for Cc1cccc(Sc2nccn3c(=O)n(CC(=O)Nc4ccc(Br)cc4C)nc23)c1 : what is it?
(A) -5.33

(Q) Reported Inhibition for Cc1nnc2c(=O)n(CC(=O)NC3CCCC3)c3ccccc3n12 : what is it?
(A) -6.29

(Q) Reported Inhibition for O=C(Cn1nc2nc(Nc3ccc(F)cc3)ccn2c1=O)NCC1CCCO1 (centres undefined) : what is it?
(A) -9.11

(Q) Reported Inhibition for Cc1ccc(NC(=O)Cn2nc3c(N4CCCC4)nccn3c2=O)cc1Cl : what is it?
(A) -0.46

(Q) Reported Inhibition for Cc1ccccc1Oc1nccn2c(=O)n(CC(=O)Nc3ccccc3C(F)(F)F)nc12 : what is it?
(A) 1.35

(Q) Reported Inhibition for CC(C)CCn1c(=O)c2ccc(C(=O)NC3CCCC3)cc2n2c(=S)[nH]nc12 : what is it?
(A) -7.9

(Q) Reported Inhibition for Cc1cc2nn(CC(=O)NC3CCCCC3)c(=O)n2c(Nc2ccc(F)c(C)c2)n1 : what is it?
(A) 0.19

(Q) Reported Inhibition for Cc1ccc(-c2ccc3nn(CC(=O)Nc4ccc(Cl)cc4)c(=O)n3n2)cc1C : what is it?
(A) -3.03

(Q) Reported Inhibition for Cc1ccc(NC(=O)Cn2nc3c(SC4CCCCC4)nccn3c2=O)cc1F : what is it?
(A) -1.05

(Q) Reported Inhibition for COc1cccc(-n2ccn3c(SCC(=O)N4CCN(c5ccccc5F)CC4)nnc3c2=O)c1 : what is it?
(A) -5.42

(Q) Reported Inhibition for Cc1cccc(NC(=O)Cn2nc3c(SCc4ccccc4)nccn3c2=O)c1C : what is it?
(A) -6.74
